From: ChEMBL document CHEMBL1125146

# tested-on: Cavia porcellus CysLT1 receptor
# assay-explanation: In vitro binding affinity against cysteinyl leukotriene D4 receptor from guinea pig lung membrane
Response field label takes fulfilled when Ki is strictly below 50 nM and not fulfilled in all other cases.

Use these answered entries as a reference point.
compound="CC(CCCc1nnn[nH]1)c1ccc(OCc2ccc3ccccc3n2)cc1 (centres undefined)" class=fulfilled
compound="CC(Cc1cccc(OCc2ccc3ccccc3n2)c1)CC(C)C(=O)O (centres undefined)" class=fulfilled
compound=O=C(O)CCCCc1ccc(OCc2ccc3ccccc3n2)cc1 class="not fulfilled"
compound="CC(CCC(=O)O)Cc1ccc(OCc2ccc3ccccc3n2)cc1 (centres undefined)" class=fulfilled

IN: Criterion: Ki strictly below 50 nM. Is it met by c1cc(CCCCc2nnn[nH]2)cc(OCc2ccc3ccccc3n2)c1 ?
OUT: fulfilled

IN: For c1ccc(C(CCc2nnn[nH]2)Cc2ccc(OCc3ccc4ccccc4n3)cc2)cc1 (centres undefined) then?
OUT: fulfilled

IN: For O=C(O)CCC(Cc1ccc(OCc2ccc3ccccc3n2)cc1)c1ccccc1 (centres undefined) then?
OUT: fulfilled

IN: For CC(CCc1cccc(OCc2ccc3ccccc3n2)c1)CC(=O)O (centres undefined) then?
OUT: not fulfilled

IN: For c1ccc(C(CCc2nnn[nH]2)Cc2cccc(OCc3ccc4ccccc4n3)c2)cc1 (centres undefined) then?
OUT: fulfilled

IN: For COc1cc(C(=O)NS(=O)(=O)c2ccccc2)ccc1Cn1ncc2ccc(NC(=O)OC3CCCC3)cc21 then?
OUT: fulfilled

IN: For CC(CCCC(=O)O)c1cccc(OCc2ccc3ccccc3n2)c1 (centres undefined) then?
OUT: not fulfilled

IN: For O=C(O)CCCCc1cccc(OCc2ccc3ccccc3n2)c1 then?
OUT: not fulfilled

IN: For c1cc(OCCCc2nnn[nH]2)cc(OCc2ccc3ccccc3n2)c1 then?
OUT: fulfilled

====

# Tested on: Cavia porcellus
# assay-explanation: Tested in vivo for antigen-induced systemic anaphylaxis after oral administration
# Assay type: functional
# Design: concentration or dose not given beside the values
reported-property: Inhibition (%)
Give the value in % but do not write % after it.

compound=c1ccc2nc(COc3ccc(CCCCc4nnn[nH]4)cc3)ccc2c1 reported_property=Inhibition result_number=100
compound=c1cc(CCCCc2nnn[nH]2)cc(OCc2ccc3ccccc3n2)c1 reported_property=Inhibition result_number=83
compound="O=C(O)CCC(Cc1cccc(OCc2ccc3ccccc3n2)c1)c1ccccc1 (configuration not stated)" reported_property=Inhibition result_number=100
compound=O=C(O)CC1(CCc2ccc(OCc3ccc4ccccc4n3)cc2)CCCC1 reported_property=Inhibition result_number=17
compound="COc1cc(C(=O)NS(=O)(=O)c2ccccc2)ccc1Cn1ncc2ccc(NC(=O)OC3CCCC3)cc21 [ICI-198615]" reported_property=Inhibition result_number=0

IN: Please report the recorded Inhibition for O=C(O)CCC(Cc1ccc(OCc2ccc3ccccc3n2)cc1)c1ccccc1 (configuration not stated) .
OUT: 50

IN: For CC(CCc1cccc(OCc2ccc3ccccc3n2)c1)Cc1nnn[nH]1 (configuration not stated) then?
OUT: 27

====

# tested-on: Cavia porcellus CysLT1 receptor
# assay-explanation: In vitro binding affinity against cysteinyl leukotriene D4 receptor from guinea pig lung membrane
Response field label takes condition met when Ki is strictly below 20 nM and condition not met in all other cases.

Use these answered entries as a reference point.
compound=c1ccc2nc(COc3ccc(CCC4(Cc5nnn[nH]5)CCCC4)cc3)ccc2c1 tested_on="Cavia porcellus CysLT1 receptor" class="condition not met"
compound=c1ccc2nc(COc3ccc(OCCCc4nnn[nH]4)cc3)ccc2c1 tested_on="Cavia porcellus CysLT1 receptor" class="condition not met"
compound="CC(CCc1nnn[nH]1)Cc1cccc(OCc2ccc3ccccc3n2)c1 (stereo unspecified)" tested_on="Cavia porcellus CysLT1 receptor" class="condition not met"
compound="c1ccc2nc(COc3ccc(CC4CCCC4Cc4nnn[nH]4)cc3)ccc2c1 (stereo unspecified)" tested_on="Cavia porcellus CysLT1 receptor" class="condition met"
compound="CC(CCc1ccc(OCc2ccc3ccccc3n2)cc1)Cc1nnn[nH]1 (stereo unspecified)" tested_on="Cavia porcellus CysLT1 receptor" class="condition not met"
compound=O=C(O)CCCOc1ccc(OCc2ccc3ccccc3n2)cc1 tested_on="Cavia porcellus CysLT1 receptor" class="condition not met"

IN: Criterion: Ki strictly below 20 nM. Is it met by CC(CCc1nnn[nH]1)Cc1ccc(OCc2ccc3ccccc3n2)cc1 (stereo unspecified) ?
OUT: condition met

IN: For CC(CCCc1cccc(OCc2ccc3ccccc3n2)c1)C(=O)O (stereo unspecified) then?
OUT: condition not met

IN: For CC(CCc1cccc(OCc2ccc3ccccc3n2)c1)Cc1nnn[nH]1 (stereo unspecified) then?
OUT: condition met

IN: For O=C(O)CC1CCCC1Cc1ccc(OCc2ccc3ccccc3n2)cc1 (stereo unspecified) then?
OUT: condition not met

IN: For CCCC(CCc1nnn[nH]1)Cc1cccc(OCc2ccc3ccccc3n2)c1 (stereo unspecified) then?
OUT: condition met

====

# System: Cavia porcellus
# assay-explanation: Tested in vivo for LTD4-induced […] after oral administration by Dermal wheal assay method
# Assay type: functional
Response field label takes MET when ED50 is strictly below 6 mg/kg and NOT MET in all other cases.

Use these answered entries as a reference point.
compound=CCCc1c(OCCCCc2nnn[nH]2)ccc(C(C)=O)c1O class="NOT MET"
compound="c1ccc2nc(COc3ccc(CC4CCCC4Cc4nnn[nH]4)cc3)ccc2c1 (stereo not drawn)" class="NOT MET"
compound="CC(CCc1nnn[nH]1)Cc1ccc(OCc2ccc3ccccc3n2)cc1 (stereo not drawn)" class=MET

IN: Criterion: ED50 strictly below 6 mg/kg. Is it met by CCCC(CCc1nnn[nH]1)Cc1ccc(OCc2ccc3ccccc3n2)cc1 (stereo not drawn) ?
OUT: NOT MET

IN: For COc1cc(C(=O)NS(=O)(=O)c2ccccc2)ccc1Cn1ncc2ccc(NC(=O)OC3CCCC3)cc21 then?
OUT: NOT MET

IN: For CC(CCc1cccc(OCc2ccc3ccccc3n2)c1)Cc1nnn[nH]1 (stereo not drawn) then?
OUT: MET

IN: For c1ccc2nc(COc3ccc(CCC4(Cc5nnn[nH]5)CCCC4)cc3)ccc2c1 then?
OUT: MET

IN: For CCCC(CCC(=O)O)Cc1ccc(OCc2ccc3ccccc3n2)cc1 (stereo not drawn) then?
OUT: NOT MET

====

# tested-on: Cavia porcellus CysLT1 receptor
# assay-explanation: In vitro binding affinity against cysteinyl leukotriene D4 receptor from guinea pig lung membrane
# key: entry, value: Ki
Give the value in nM but do not write nM after it.

compound=O=C(O)CC1(CCc2ccc(OCc3ccc4ccccc4n3)cc2)CCCC1 value_unit=nM result_number=51

IN: Please report the recorded Ki for CCCC(CCC(=O)O)Cc1ccc(OCc2ccc3ccccc3n2)cc1 (stereo unspecified) .
OUT: 21

IN: For CC(CCCc1nnn[nH]1)c1cccc(OCc2ccc3ccccc3n2)c1 (stereo unspecified) then?
OUT: 31

IN: For O=C(O)CCC(Cc1cccc(OCc2ccc3ccccc3n2)c1)c1ccccc1 (stereo unspecified) then?
OUT: 52

IN: For CCCC(CCC(=O)O)Cc1cccc(OCc2ccc3ccccc3n2)c1 (stereo unspecified) then?
OUT: 50

IN: For CC(CCC(=O)O)Cc1cccc(OCc2ccc3ccccc3n2)c1 (stereo unspecified) then?
OUT: 140
